Lab note: pIC50 readings collected with Cytochrome P450 3A4 (Homo sapiens, UniProt P08684) for the following compounds.
Sequence (P08684 whole entry): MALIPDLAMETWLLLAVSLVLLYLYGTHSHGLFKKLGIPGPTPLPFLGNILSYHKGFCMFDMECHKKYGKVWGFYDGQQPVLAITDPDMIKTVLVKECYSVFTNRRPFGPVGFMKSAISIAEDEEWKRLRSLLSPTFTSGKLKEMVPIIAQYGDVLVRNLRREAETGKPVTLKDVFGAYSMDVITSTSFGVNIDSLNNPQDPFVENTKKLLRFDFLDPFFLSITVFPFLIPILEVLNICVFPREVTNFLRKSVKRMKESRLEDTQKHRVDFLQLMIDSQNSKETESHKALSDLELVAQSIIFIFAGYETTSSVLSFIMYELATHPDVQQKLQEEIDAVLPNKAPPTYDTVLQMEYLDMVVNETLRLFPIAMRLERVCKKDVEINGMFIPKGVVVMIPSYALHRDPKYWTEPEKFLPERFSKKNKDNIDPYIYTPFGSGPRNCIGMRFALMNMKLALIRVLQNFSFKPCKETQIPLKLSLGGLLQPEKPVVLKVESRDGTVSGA
pIC50: −log10 of the molar value.
recordedMetric: pIC50

[[record]]
compound = "O=C(NCc1ccncc1)c1cnc(Nc2cccc(Cl)c2)nc1C(F)(F)F"
experimentalvalue = "> 7.00"

[[record]]
compound = "O=C(NCC1CCOCC1)c1cnc(Nc2cc(F)cc(F)c2)nc1C(F)(F)F"
experimentalvalue = "< 4.00"

[[record]]
compound = "O=C(NCC1CCOCC1)c1cnc(Nc2ccc(Cl)cc2F)nc1C(F)(F)F"
experimentalvalue = "< 4.00"

[[record]]
compound = "O=C(NCC1CCOCC1)c1cnc(Nc2ccc(Cl)c(Cl)c2)nc1C(F)(F)F"
experimentalvalue = "< 4.60"

[[record]]
compound = "O=C(NCC1CCOCC1)c1cnc(Nc2ccc(Cl)cc2Cl)nc1C(F)(F)F [GW842166X]"
experimentalvalue = "< 4.00"


###

# systemTested: Cannabinoid receptor 2 (Homo sapiens)
# Sequence (P34972 whole entry): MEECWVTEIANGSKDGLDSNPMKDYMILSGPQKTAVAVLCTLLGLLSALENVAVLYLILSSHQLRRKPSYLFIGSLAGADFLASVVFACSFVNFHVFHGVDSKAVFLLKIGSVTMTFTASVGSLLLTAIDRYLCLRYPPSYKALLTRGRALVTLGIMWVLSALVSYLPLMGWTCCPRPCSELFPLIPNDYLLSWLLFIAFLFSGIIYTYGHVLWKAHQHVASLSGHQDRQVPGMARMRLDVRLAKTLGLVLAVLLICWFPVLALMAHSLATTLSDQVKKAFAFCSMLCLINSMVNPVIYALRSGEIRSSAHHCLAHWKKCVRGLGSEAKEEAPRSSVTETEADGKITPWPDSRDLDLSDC
# experimentalProtocol: Efficacy at human recombinant CB2 receptor expressed in Saccharomyces cerevisiae cells relative to HU210
# Format: cell-based
recordedMetric: Efficacy (%)

[[record]]
recordsmiles = "O=C(NCc1ccccc1)c1cnc(Nc2cccc(F)c2)nc1C(F)(F)F"
experimentalvalue = 88

[[record]]
recordsmiles = "O=C(NCC1CCOCC1)c1cnc(Nc2ccc(F)cc2F)nc1C(F)(F)F"
experimentalvalue = 81

[[record]]
recordsmiles = "O=C(NCC1(O)CCCCC1)c1cnc(Nc2cccc(Cl)c2)nc1C(F)(F)F"
experimentalvalue = 83

[[record]]
recordsmiles = "O=C(NCc1ccc(F)cc1)c1cnc(Nc2cccc(Cl)c2)nc1C(F)(F)F"
experimentalvalue = 78

[[record]]
recordsmiles = "O=C(NCc1ccccc1)c1cnc(Nc2cccc(Cl)c2)nc1C(F)(F)F"
experimentalvalue = 82

[[record]]
recordsmiles = "O=C(NCc1ccccc1Cl)c1cnc(Nc2cccc(Cl)c2)nc1C(F)(F)F"
experimentalvalue = 21

[[record]]
recordsmiles = "COc1ccccc1Nc1ncc(C(=O)NCc2ccccc2)c(C(F)(F)F)n1"
experimentalvalue = 77

[[record]]
recordsmiles = "O=C(NCC1CCCCC1)c1cnc(Nc2cccc(Cl)c2)nc1C(F)(F)F"
experimentalvalue = 82

[[record]]
recordsmiles = "COc1ccc(CNC(=O)c2cnc(Nc3cccc(Cl)c3)nc2C(F)(F)F)cc1"
experimentalvalue = 66

[[record]]
recordsmiles = "O=C(NCC1CC1)c1cnc(Nc2cccc(Cl)c2)nc1C(F)(F)F"
experimentalvalue = 79

[[record]]
recordsmiles = "O=C(NCC1CCOCC1)c1cnc(Nc2cc(Cl)ccc2Cl)nc1C(F)(F)F"
experimentalvalue = 85

[[record]]
recordsmiles = "O=C(NCc1ccco1)c1cnc(Nc2ccccc2)nc1C(F)(F)F"
experimentalvalue = 62


The values you see were collected from ChEMBL document CHEMBL1143658.
